Answer each item with its documented inhibition.
Protocol Summary: inhibition of PEG-3 promoter activity – cell-based, HeLa, luciferase luminescence, primary screen (AID 588405)
Condition Set: HeLa PEG-Prom luciferase reporter, overnight, at 20 µM, active compounds read high
The campaign covered roughly 360,000 compounds. About 6,200 (1.7%) were called active. What follows is part of a selection rich in actives, with near analogues and random picks from the rest.
One number for each entry, in %.

Example compounds with recorded inhibition:
COc1ccc2[nH]c3c(c2c1)CCN1C(=O)C(CC(=O)NCCCN(C)C)C[C@H](C(=O)N2CCOCC2)[C@@]31CCC1CCCC1 (stereo partly drawn)    1.46
Cc1ccsc1C(=O)OCC(=O)c1cc(C)n(CC2CCCO2)c1C (stereo not drawn)    55.9
Cc1ccsc1C(=O)OCC(=O)NCCc1ccccc1    -156

Each of the following entries comes with a recorded value; kindly state inhibition for each.
1. O=C1NC[C@H](Cc2ccc(O)cc2)N(C[C@H]2CCCN2C[C@H](Cc2ccccc2)N2C[C@H](Cc3ccccc3)N(CCc3ccccc3)C(=O)C2=O)C1=O
2. CCOc1ccc(Cl)cc1-c1cc(C(=O)NCc2cccs2)[nH]n1
3. CC(C(=O)NC1CCS(=O)(=O)C1)N1C(=O)/C(=C/c2ccc(Cl)cc2)SC1=S (stereo not drawn)
4. O=C(Nc1cccc(Cc2ccccc2)c1)Nc1ccc2nc([C@@H]3O[C@H](CO)[C@@H](O)[C@H](O)[C@H]3O)[nH]c2c1
5. O=C1N=C(N2CCc3ccccc3C2)S/C1=C\c1ccc(O)cc1
6. Cc1nc(N=C(N)N)nc2c(C)cccc12

Solution:
-4.33
-9.07
-7.3
-16.1
-5.21
20.3
